Recorded Plant response rating, Oat, Wild values for a group of compounds are listed next.
- System: wild oat (Avena fatua)
- testMethodNotes: Test B pre-/postemergence plant response
- Format: in vivo
- experimentalSetup: Postemergence; 62 g ai/ha; scale 0 to 100 (0 no effect, 100 complete control)
Number, no unit, nothing else.

Guide cases for Plant response rating, Oat, Wild, answers given:
CCCc1ncc(C(=O)C2=C(O)CCCC2=O)c(=O)n1-c1ccccc1    40
CCCn1c(-c2ccccc2)ncc(C(=O)C2=C(O)C3CCC(C3)C2=O)c1=O (stereo not shown)    30

Ask: Reported Plant response rating, Oat, Wild for CCCCn1c(C2CC2)ncc(C(=O)C2=C(O)CCCC2=O)c1=O : what is it?
Result: 50

Ask: Consider next the compound CCn1c(-c2cccc(F)c2)ncc(C(=O)C2=C(O)C3CCC(C3)C2=O)c1=O (stereo not shown) in the same way.
Result: 0

====

- Test system: soybean (Glycine max)
- testMethodNotes: Test B pre-/postemergence plant response
- Format: in vivo
- experimentalSetup: Postemergence, 125 g ai/ha; visual rating after 13 to 15 days, scale 0 (no effect) to 100 (complete control)
Recorded Plant response rating, Soybean values for a group of molecules are listed next.
Number, no unit, nothing else.

Guide cases for Plant response rating, Soybean, answers given:
O=C1CCCC(O)=C1C(=O)c1cnc(-c2ccccc2)n(-c2ccc(F)cc2)c1=O [Compound 24]    95
Cc1cc(F)ccc1-n1c(-c2ccccc2)ncc(C(=O)C2=C(O)CCCC2=O)c1=O [Compound 48]    98
CCCn1c(-c2ccccc2)ncc(C(=O)C2=C(O)CCCC2=O)c1=O [Compound 50]    95
Cc1ccc(-n2c(-c3cccc(Cl)c3)ncc(C(=O)C3=C(O)CCCC3=O)c2=O)cc1 [Compound 39]    98
Cc1ccc(C)c(-n2c(-c3ccccc3)ncc(C(=O)C3=C(O)CCCC3=O)c2=O)c1 [Compound 29]    98
Cc1cccc(-n2c(-c3ccccc3)ncc(C(=O)C3=C(O)CCCC3=O)c2=O)c1F [Compound 58]    95
Cc1cccc(-n2c(-c3cccc(Cl)c3)ncc(C(=O)C3=C(O)CCCC3=O)c2=O)c1 [Compound 45]    98

Could you now look at the following molecule, please?
Ask: Reported Plant response rating, Soybean for O=C1CCCC(O)=C1C(=O)c1cnc(-c2cccc(Cl)c2)n(-c2ccccc2)c1=O [Compound 34] : what is it?
Result: 95

====

- System: corn (Zea mays)
- testMethodNotes: Test B pre-/postemergence plant response
- Type: in vivo
- experimentalSetup: Preemergence, 62 g ai/ha; scale 0 to 100, 0 no effect, 100 complete control
measureName: Plant response rating, Corn
Number, no unit, nothing else.

Guide cases for Plant response rating, Corn, answers given:
Cc1cccc(-n2c(-c3ccccc3)ncc(C(=O)C3=C(O)CCCC3=O)c2=O)c1C    0
O=C1CCCC(O)=C1C(=O)c1cnc(-c2ccccc2)n(-c2ccc(F)cc2)c1=O    0
O=C1CCCC(O)=C1C(=O)c1cnc(-c2ccccc2)n(-c2ccccc2Br)c1=O    0
Cc1ccc(-n2c(-c3cccc(Cl)c3)ncc(C(=O)C3=C(O)CCCC3=O)c2=O)cc1    0
CCCCn1c(CCC)ncc(C(=O)C2=C(O)CCCC2=O)c1=O    0

Ask: Reported Plant response rating, Corn for CCCn1c(-c2ccccc2)ncc(C(=O)C2=C(O)CCCC2=O)c1=O : what is it?
Result: 0

Ask: Consider next the compound CCc1cccc(-n2c(-c3ccccc3)ncc(C(=O)C3=C(O)CCCC3=O)c2=O)c1 in the same way.
Result: 0
